system_tested: c-Met (phospho-c-Met) in HT29 cells (Homo sapiens)
Construct: endogenous in cells; host or cells: HT29, A549 (HGF-stimulated), GTL-16
experimental_details: c-Met Cellular Activity/Autophosphorylation Assay, HT29 cells
Format: cell-based
details: HT-29, 3 μM compound, read-out: c-Met autophosphorylation inhibition score, HT29 Cells (3 μM)
Procedure: HT29 and GTL-16 cells were serum starved for one hour in media containing 0.05% BSA and varying concentrations of Example compounds (1-10 μM). A549 cells were serum starved overnight in media containing 0.05% BSA then treated for one hour with Example compounds followed by a 15 minute stimulation with 50 ng/mL HGF (Peprotech, Rocky Hill, N.J.), respectively. […] Blots were then washed and read on the Odyssey Infrared Imager. […]
property_name: inhibition at 3 µM

Solved entries (count: 5):
sample_smiles	endpoint_value
O=C(c1ccc(-c2cnc3c(c2)N(Cc2cc(Cl)ccc2Cl)CCN3)cc1)N1CCC[C@H]1CN1CCCC1	0 to 25%
Fc1ccc(F)c(CN2CCNc3ncc(-c4ccnc(N5CCOCC5)c4)cc32)c1Cl	26 to 50%
O=C(c1ccc(-c2cnc3c(c2)N(Cc2cc(Cl)ccc2C(F)(F)F)CCN3)cc1)N1CCC(N2CCCC2)CC1	0 to 25%
CN1CCN(C(=O)c2ccc(-c3cnc4c(c3)N(Cc3c(F)ccc(F)c3Cl)CCN4)cc2)CC1	51 to 75%
O=C(c1ccc(-c2cnc3c(c2)N(Cc2cc(Cl)ccc2Cl)CCN3)cc1)N1CCC(N2CCCC2)CC1	26 to 50%

[Q] Need inhibition at 3 µM, item "O=C1CNc2ncc(-c3ccc(C(=O)N4CCC[C@H]4CN4CCCC4)cc3)cc2N1Cc1cc(Cl)ccc1Cl"
[A] 26 to 50%

###

Overview of reported inhibition at 3 µM across a group of compounds:
system_tested: c-Met (phospho-c-Met) in A549 cells (Homo sapiens, UniProt P08581)
Construct: endogenous in cells; host or cells: HT29, A549 (HGF-stimulated), GTL-16
Sequence (P08581 25-1390): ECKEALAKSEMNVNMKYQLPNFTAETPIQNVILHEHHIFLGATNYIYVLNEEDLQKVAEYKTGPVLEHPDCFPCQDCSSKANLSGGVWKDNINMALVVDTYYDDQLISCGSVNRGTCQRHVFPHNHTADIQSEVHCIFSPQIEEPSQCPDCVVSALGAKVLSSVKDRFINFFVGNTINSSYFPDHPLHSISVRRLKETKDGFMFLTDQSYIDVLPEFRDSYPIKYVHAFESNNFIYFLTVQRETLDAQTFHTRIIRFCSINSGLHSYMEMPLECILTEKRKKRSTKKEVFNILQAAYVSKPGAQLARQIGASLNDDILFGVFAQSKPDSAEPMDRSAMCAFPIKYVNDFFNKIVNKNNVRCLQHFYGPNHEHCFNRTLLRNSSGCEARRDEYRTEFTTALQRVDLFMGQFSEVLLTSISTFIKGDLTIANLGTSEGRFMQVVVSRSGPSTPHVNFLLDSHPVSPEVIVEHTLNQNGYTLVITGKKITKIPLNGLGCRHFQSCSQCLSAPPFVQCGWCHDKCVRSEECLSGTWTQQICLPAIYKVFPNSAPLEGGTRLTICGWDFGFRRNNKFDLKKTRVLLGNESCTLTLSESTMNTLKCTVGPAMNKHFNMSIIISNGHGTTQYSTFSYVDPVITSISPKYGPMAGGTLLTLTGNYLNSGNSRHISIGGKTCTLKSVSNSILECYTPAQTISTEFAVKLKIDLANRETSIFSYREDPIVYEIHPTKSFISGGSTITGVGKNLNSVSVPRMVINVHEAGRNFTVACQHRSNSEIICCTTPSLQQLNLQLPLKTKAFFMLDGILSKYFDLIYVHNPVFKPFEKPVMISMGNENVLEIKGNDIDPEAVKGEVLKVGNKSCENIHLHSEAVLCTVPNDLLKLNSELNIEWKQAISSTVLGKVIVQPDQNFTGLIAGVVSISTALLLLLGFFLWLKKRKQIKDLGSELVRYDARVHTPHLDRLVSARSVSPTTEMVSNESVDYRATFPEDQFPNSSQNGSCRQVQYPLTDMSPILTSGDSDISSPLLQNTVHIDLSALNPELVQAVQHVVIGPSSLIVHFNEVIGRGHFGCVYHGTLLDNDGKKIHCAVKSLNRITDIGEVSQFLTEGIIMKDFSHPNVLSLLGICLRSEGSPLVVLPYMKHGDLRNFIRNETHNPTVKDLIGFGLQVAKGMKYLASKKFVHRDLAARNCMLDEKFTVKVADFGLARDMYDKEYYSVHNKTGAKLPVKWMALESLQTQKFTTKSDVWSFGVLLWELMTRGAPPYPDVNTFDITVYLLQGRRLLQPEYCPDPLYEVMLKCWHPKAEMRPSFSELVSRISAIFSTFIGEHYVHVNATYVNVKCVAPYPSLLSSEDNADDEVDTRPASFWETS
experimental_details: c-Met Cellular Activity/Autophosphorylation Assay, A549 cells (HGF stimulated)
Assay type: cell-based
details: 3 μM compound, 50 ng/mL HGF, read-out: c-Met autophosphorylation inhibition score, A549 Cells (3 μM)

compound	endpoint_value
CN1CCN(c2ccc(-c3cnc4c(c3)N(Cc3cc(C(F)(F)F)ccc3Cl)CCN4)cn2)CC1	26 to 50%
CN1CCN(c2ccc(-c3cnc4c(c3)N(Cc3cc(F)ccc3F)CCN4)cn2)CC1	0 to 25%
CC(c1c(F)ccc(F)c1Cl)N1CCNc2ncc(-c3ccc(N4CCN(C)CC4)nc3)cc21 (stereo not drawn)	0 to 25%
O=C1CNc2ncc(-c3ccc(C(=O)N4CCC[C@H]4CN4CCCC4)cc3)cc2N1Cc1cc(Cl)ccc1Cl	0 to 25%
O=C(c1ccc(-c2cnc3c(c2)N(Cc2c(Cl)cccc2Cl)CCN3)cc1)N1CCC[C@H]1CN1CCCC1	0 to 25%

[Q] Which inhibition at 3 µM reading was recorded for the compound "O=C(c1ccc(-c2cnc3c(c2)N(Cc2c(F)ccc(F)c2Cl)CCN3)cc1)N1CCC[C@H]1CN1CCCC1" ?
[A] 0 to 25%

[Q] Also "CN1CCN(c2ccc(-c3cnc4c(c3)N(Cc3cc(Cl)ccc3C(F)(F)F)CCN4)cn2)CC1" ?
[A] 26 to 50%

[Q] Same question for "O=C(c1ccc(-c2cnc3c(c2)N(Cc2c(F)ccc(F)c2Cl)CCN3)cc1)N1CCC(N2CCCC2)CC1" please.
[A] 0 to 25%

[Q] Quick one: "O=C(c1ccc(-c2cnc3c(c2)N(Cc2cc(F)ccc2F)CCN3)cn1)N1CCOCC1"
[A] 0 to 25%

[Q] # iterate: "Fc1ccc(F)c(CN2CCNc3ncc(-c4ccnc(N5CCOCC5)c4F)cc32)c1Cl"
[A] 26 to 50%

[Q] Also, "O=C(c1ccc(-c2cnc3c(c2)N(Cc2c(Cl)cccc2Cl)CCN3)cc1)N1CCC(N2CCCC2)CC1" please.
[A] 0 to 25%

[Q] Now try "CC(C)(C)OC(=O)NCC#Cc1cnc2c(c1)N(Cc1cc(Cl)ccc1Cl)CCN2" .
[A] 0 to 25%

[Q] Request: "CN1CCN(c2cc(-c3cnc4c(c3)N(Cc3c(F)ccc(F)c3Cl)CCN4)ccn2)CC1"
[A] 0 to 25%

[Q] Input "O=C(c1ccc(-c2cnc3c(c2)N(Cc2cc(Cl)ccc2C(F)(F)F)CCN3)cc1)N1CCC(N2CCOCC2)CC1"
[A] 0 to 25%

[Q] Try this compound too: "CN1CCN(c2ccc(-c3cnc4c(c3)N(S(=O)(=O)c3cc(F)ccc3F)CCN4)cn2)CC1"
[A] 26 to 50%

[Q] Could you do the same for "O=C(c1ccc(-c2cnc3c(c2)N(Cc2cc(Cl)ccc2Cl)CCN3)cc1)N1CCC[C@H]1CN1CCCC1" , please?
[A] 0 to 25%

[Q] What do you have for "O=C(O)c1ccc(-c2cnc3c(c2)N(Cc2cc(F)ccc2F)CCN3)cn1" ?
[A] 0 to 25%

[Q] Moving on to "O=C(c1ccc(-c2cnc3c(c2)N(Cc2cc(Cl)ccc2Cl)CCN3)cc1)N1CCC(N2CCCC2)CC1"
[A] 0 to 25%
